- Test system: SW-620 colon
- Protocol Details: NCI-60 one-dose screen, 48 h (100 = growth as untreated, 0 = no growth, -100 = all killed)
- Experimental Setup: 10 µM unless noted
About 83,000 compounds went through this panel and 20% of them were active in at least one assay; those are over-represented in the sample as a whole. Active and inactive are the calls of the source. How the source made its calls: active means growth percent below 10; inactive means the rest.
Catalogue of growth values
Endpoint: growth

# Compound, Reported
records = [
    ("O=S(=O)(c1ccccc1)n1cc2c(c1)-c1nc(Nc3ncccn3)sc1CC2", "65.1% (inactive)"),
    ("COc1ccc(/C=C/C(=O)c2cc3c(N)c(C(=O)Nc4cccc5ccccc45)sc3nc2C)cc1", "24.8% (inactive)"),
    ("O=C(NCc1ccc(Cl)cc1Cl)C1CCC(=O)N1c1cccs1 (stereo not given)", "106% (inactive)"),
    ("CC1(C)COB(OCC(C)(C)COB2OCC(C)(C)CO2)OC1", "110% (inactive)"),
    ("CCCCCCC12CCC(=O)N1CCc1cncn12 (stereo not given)", "102% (inactive)"),
    ("C=CCn1c(SCC(=O)Nc2ccc(C(=O)/C=C/c3ccc(Cl)cc3)cc2)nnc1-c1ccc(Br)cc1", "82.5% (inactive)"),
    ("Nc1nc2ccccc2c2c(=O)c3cccc(Cl)c3sc12", "89% (inactive)"),
    ("Cn1ccnc1C(=O)/C=C/c1ccc(CC(=O)Nc2cc(C(F)(F)F)cc(C(F)(F)F)c2)cc1", "70.5% (inactive)"),
    ("COc1cc2c(c(OC)c1OC)CCC(c1cccc(C(=O)Nc3ccc(C#N)cc3)c1)O2 (stereo not given)", "86.7% (inactive)"),
    ("Cn1c(=O)c2nc(/C=C/c3ccccc3)c(=O)[nH]c2n(C)c1=S", "98.9% (inactive)"),
]

Every entry's value here was drawn from PubChem BioAssay (NCI).
